assay_text: yeast display, Sf9 membrane polyspecificity reagent, FACS + sequencing; frameworks hold sequencing errors

sequence_content | polyreactivity (PSR sort gate)
QVQLVESGGRLVQAGGSLRLSCAASGFTFRYYAMGWYRQAPGKERELVAAITWSGGRTYYADSVKGRFTISRDNAKNTVFLQMNSLKPEDTAVYSSNTPSLWYGEDYWGHGTQVTVSS | high polyreactivity
QVQLVESGGCLVQAGGSLRLSCAASGRIFGSYTKGWYRQAPGKERELVAAISDSGDSTYADSVKGRFTISRDNAKNTVYLQMNSLKPEDTAVYYCNAKSGSLAGNEYDYWGQGTQVTVSS | low polyreactivity
QVQLVESGGGLVQAGGSLRLSCAASGSIFYPYVMGWYIQAPGKESELVASISRRGGRTYYADSVKGRFTISRDYAKNTVYLEMNSLKPEDTAVYYCAKRTYDSFYGYYYWGQVTQVTVSS | high polyreactivity
QVQLVESGGGLVQAGGSLRLSCAASGRISVFNAMGWYRHAPGKERELVAAITSGGSTNYADSVKGRFTISRDNAKNTVYLQMNSLKPEDTAVYYCNADVYHSHEPHYDYWGQGTQVTVSS | low polyreactivity

----------
assay_text: yeast display, Sf9 membrane polyspecificity reagent, FACS + sequencing; frameworks hold sequencing errors
measurement_label: polyreactivity (PSR sort gate)

In the examples that follow, each entry is paired with its recorded polyreactivity (PSR sort gate).
sequence_content | reported_value
QVQLVESGGGLVQAGGSLRLSCAASGRISFRIRWDGIDRRLGKKGSWLPLLTNTGSTNYADSVKGRFTISRDNAKNTVYLQMNSLKPEDTAVYYCNADQTGGSSYPAYFEYDYWGQGTQVTVSS | low polyreactivity
QVQLVESGGGLVQAGGSLRLSCAASGITFGRYAMGWYSQAPGKARELVASITVNGGRTYYADSVKGRFTISRDNAKNTVNLQMNSLKPEDTAVSYCAAERRNSYVLLFKYNYWGQGTQVTVSS | low polyreactivity
QVQLVESAGGLVQAGGSLRLSCGASGRIFYYNTMGWYRQAPGKERELVAAITTNGGSTYYADSVKGRFTISRDNAKNTVYLQMYSLKPEDTAVYYCNRDRYPYYYAYNYWGQGTQVTVSS | low polyreactivity
QVQLEESGGGLVQAGGSLRLSCAASGRSFNHNAMGWYRQAPGKERELVAAINQSGSSTYYADSVKGRFTISRDNAKNTVYLQMNSLKREDTAVYYCAAVCNGVDYEYWGQGTQVTVSS | low polyreactivity
QVQLVESGGGLVQAGGSLRLSCAASGRIGTYAMGWYRQAPGKERELVAGIRSGGSTYYADSVKGRFTISRDNAKNTVYLQLNSLKPEDTAVYYCAADRGYRGATGKYDSWGQGTQVTVSS | high polyreactivity
QVQLVESGGGLVQAGGSLRLSCAASGRTFISNAMGWYRQAPGKERELVAAITSTGGRTYYADSVKGRFTISRDNAKNTVYLQMNSLKPEDTAVYYCNTGKRRFYSMDYWGQGTQVTVSS | high polyreactivity

Consider QVQLVESGGGLVQAGGSLRLSCAASGSTFQGNAMGWYRQAPGKERELVAAISSDGSTDYADSVKGRFTISRDNAKNTVYLQMNSLKPEDTAVYYCNRVSPGPDADLEFDYWGQGTQVTVSS . Its measured polyreactivity (PSR sort gate) is low polyreactivity

----------
assay_text: yeast display, Sf9 membrane polyspecificity reagent, FACS + sequencing; frameworks hold sequencing errors

sequence_content | polyreactivity (PSR sort gate)
QVQLVESGGGLVQAGGSLRLSCAASGITFYYYDMGWYRLAPGKERELVAAISWSGGRTYYADSVKGRFTISRDNEKNTVYLQMNSLKPEDTAVYYCASGYYVYHFVSLYGGDYWGQGTQVTVSS | high polyreactivity
QVQLVESGGGLVQAGGSLRLSFAASGRIFGWYAIGGYRKAAGTEREVVAAISTSGVRTYYADSVKGRFTISRDNAKITVYLQMKSLKPEDTAVYYCAARYIRAYSRDYWGQGTQVTVSS | high polyreactivity
QVQLVESGGGLVQAGGSLRLSCAASGFTFARYAMGWYTKAPGKERELVARISSDGGGTDYADSVKGRFTISRDNAKNTVYLQMNSLKPEDTAVYYCAARFPGYHYFKYYYWGQGTQVTVSS | low polyreactivity
QVQLVESGGGLVQAGGSLRLTCAASGRIFYQYAMGWYRQAPGKEMDLVASITTSGGNTYYADSVKGRFTISRDNAKNTVYLQMNSLKPEDTAVYYCAARFNWRQWLYEYWGQGTQVTVSS | low polyreactivity

----------
assay_text: yeast display, Sf9 membrane polyspecificity reagent, FACS + sequencing; frameworks hold sequencing errors
measurement_label: polyreactivity (PSR sort gate)

In the examples that follow, each entry is paired with its recorded polyreactivity (PSR sort gate).
sequence_content | polyreactivity (PSR sort gate)
QVQLVESCGGLVQAGGSLRLSCAASGRIFQTYAMGWYRQAPGKERELVASISWSGGSTYYADSVKGRFTILRDNAKNTVYLQMNSLKPEDTAVYYCAAVYYSTDYYFWYDYWGQGTQVTVSS | low polyreactivity
QVQLVESGGGLVQAGGSLRLSCAASGITFNFYAMGWYRQAPGKERELVAAITQSGGSTYYADSVKGRFTISRDNAKNTVYLQMNSLKPEDTAVYYCAAARTGHMYYWGQGTQVTVSS | high polyreactivity
QVQLVESGGGLVQAGGRLRLSCAASGRIFYHNAMGWYRQAPGKERELVAAITWSGVSTYYADSVKGRFTISRDNAKNTVYLQMNSLKPEDTAVYYCAKRGRWDWDFNYWGQGTQVTVSS | high polyreactivity
QVQLVESGGGLVQAGGSLRLSCAASGSTFGYYAMGWYRQAPGKERELVAAITGRGGSTYYADSVKGRFTISRDNAKNTVYLQMNSLKPEDTAVYYCAVGKYRLYYSGAYGYWGQGTQVTVSS | high polyreactivity
QVQLVESGGGLVQAGGSLRLSCAASVNIFESYGMGWYRQAPGKERELVATINTSSGSTYYADSVKGRFTISRDNAKNTVYLQMNSLKPEDTAVYYCSAEWYPYPWGYGYSGQGTQVTVSS | low polyreactivity
QVQLVESGGGLVQAGGSLRLSCAASGFTFEWNTMGWYRPAPGKERELVARINWSSGRTYYADSVKGRFTISRDNAKNTVYLQMNSLKPEDTAVYYCAADTYDWRTGYKDDYWGQGTQVTVSS | high polyreactivity

Here is another sequence to look at.
Consider QVQLVESGGGLVQAGGSLRLSCAASGRIFKDNAMGWYRQAPGKERELVATIDSGGDTNYADSVKGRFTISRDNAKNTVYLQMNSLKPEDTAVYYCNTEGFLSAVYAFGYWGQGTQVTVSS . Its measured polyreactivity (PSR sort gate) is low polyreactivity

----------
assay_text: yeast display, Sf9 membrane polyspecificity reagent, FACS + sequencing; frameworks hold sequencing errors
measurement_label: polyreactivity (PSR sort gate)

In the examples that follow, each entry is paired with its recorded polyreactivity (PSR sort gate).
sequence_content | polyreactivity (PSR sort gate)
QGQLVESGGGLVQAGGSLRFSCAASGRTLSAHAMGWYREAPGTERELVATISTRGGRTYYADSVKGRFTISRDHAKNTVYIQMNSLKPEHTAVYSCAVTIRAKYTLKEDYWGQGTQVTVSS | low polyreactivity
QVQLVESGGGLVQAGGSLRLSCAASGYTFRYYAMGWYRQAPGKERELVAAITGSGGSTYYADSVKGRFTISRDNAKNTVYLQMNSLKPEDTAVYYCNTVTTSYKRSGKFDYWGQGTQVTVSS | high polyreactivity
QGQLVESGGGLVQAGGSLRLSCPASGNTFKYYAMGWYRQAPGKEWELVAAISYSGGSTYYADSVKGRFTISRDNAKNTVYLQMNSLKPEDTAVYYCAADPTNSYLEYDEWGQGTQVTVSS | low polyreactivity
QVQLVESGGGLVQAGGSLRLSCAASGRIFKYYVMGWYRQAPGKERELVATISSGSGTNYADSVKGRFTISRDNAKNTVYLQMNSLKPEDTAVYYCAARWTPRVRGYNYWGQGTLVTVSS | high polyreactivity
QVQLVESGGGLVQAGGRLRLSFAASGFTFRYYAMGWYRQAPGKEREFVAAIRSSGTTTSYADSVKGRFTISRDNAKNTVYLHMKSLKPEDTAVYYCAKVSSSSYVEHRYGYWGQGTQVTVSS | high polyreactivity

Consider QVQLVESGGGLVQAGGSLRLSCAASGRIFERYAMGAYRQAPGKERELVAAISVSGSGTFYADSVKGLFTISRDNAKNTVYLQMNSLKTEDTAVYYCAADASLLGLFQGYDYWGQGTQVSVSS . Its measured polyreactivity (PSR sort gate) is low polyreactivity

Consider QVQLVESGGGLVQAGGSLRLSGAASGFISFPYAMGWDTQATGKERELVASITRSGGNTYYADSVKGRFTISRDNEKNTVYLQMNSLKPEDTAVYYCNAQIYTYRSGRGYSRMDYWGEGTQVTVSS . Its measured polyreactivity (PSR sort gate) is high polyreactivity

Consider QVQLVESGGGLVQAGGSLRLSCAASGSIFYHYAMGWYRQAPGKERELVAGITSSGDRTHYADSVKGRFTISRDNAKNTVYLQMNSLKPEDTAVYYCNTATIHGTAYDYWGQGTQVTVSS . Its measured polyreactivity (PSR sort gate) is low polyreactivity

Numbers sourced from the nanobody polyreactivity screen of Harvey et al. (2022).
